system.name: Protein mono-ADP-ribosyltransferase PARP15 (Homo sapiens, UniProt Q460N3)
assay.explanation: Inhibition of human N-terminal 6His-tagged PARP15 (460 to 656 residues) expressed in Escherichia coli Rosetta2 (DE3) cells using NAD+ as substrate incubated for 10 mins by fluorescence based analysis
Each entry below lists one item and its recorded IC50 value.
Just the number in nM, nothing appended.

- O=c1[nH][nH]c(=O)c2cc(OCc3ccsc3)ccc12: 400

Could you now look at the following compound, please?
For reference, reported IC50 for COc1cc(OCc2ccccc2F)ccc1C(N)=O stands at 2600

====

Each record here notes measured pIC50.
system.name: UniProt Q460N3
assay.explanation: Inhibition of human N-terminal 6His-tagged PARP15 (460 to 656 residues) expressed in Escherichia coli Rosetta2 (DE3) cells using NAD+ as substrate incubated for 10 mins by fluorescence based analysis
Units for pIC50: none; it is -log10 of a concentration expressed in mol/L.

Use the examples below as a reference point.
* O=c1[nH][nH]c(=O)c2cc(OCc3ccccc3F)ccc12 | 6.43
* O=c1[nH][nH]c(=O)c2cc(OCC3CC3)ccc12 | 5.92
* O=c1[nH][nH]c(=O)c2cc(OCC3CCC3)ccc12 | 6.43
* O=c1[nH][nH]c(=O)c2cc(OCc3cccc(Br)c3)ccc12 | 5.89

Alright, here's another compound for you.
Please fill in: pIC50 reported for COc1cc(OCc2cccc3ccccc23)ccc1C(N)=O = 5.66

====

system.name: Protein mono-ADP-ribosyltransferase PARP15 (Homo sapiens)
Sequence (Q460N3 whole entry): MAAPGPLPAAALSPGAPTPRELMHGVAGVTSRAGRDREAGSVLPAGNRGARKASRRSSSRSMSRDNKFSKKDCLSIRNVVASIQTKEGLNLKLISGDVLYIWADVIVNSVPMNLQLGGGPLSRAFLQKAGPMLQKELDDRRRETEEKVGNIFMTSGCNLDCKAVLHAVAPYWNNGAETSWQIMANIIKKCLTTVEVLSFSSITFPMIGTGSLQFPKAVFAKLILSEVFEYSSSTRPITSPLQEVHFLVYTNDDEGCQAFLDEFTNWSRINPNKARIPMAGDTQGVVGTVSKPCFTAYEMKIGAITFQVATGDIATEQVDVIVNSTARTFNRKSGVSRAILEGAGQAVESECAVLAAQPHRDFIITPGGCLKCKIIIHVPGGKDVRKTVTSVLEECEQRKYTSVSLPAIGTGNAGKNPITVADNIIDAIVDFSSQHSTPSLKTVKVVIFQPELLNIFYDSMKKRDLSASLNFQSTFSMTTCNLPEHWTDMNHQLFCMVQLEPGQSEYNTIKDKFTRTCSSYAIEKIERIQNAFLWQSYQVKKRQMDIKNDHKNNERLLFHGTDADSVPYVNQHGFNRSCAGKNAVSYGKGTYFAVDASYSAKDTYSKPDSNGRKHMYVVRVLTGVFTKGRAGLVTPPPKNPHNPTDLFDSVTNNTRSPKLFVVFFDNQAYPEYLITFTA
assay.explanation: Inhibition of PARP15 (unknown origin)
readout.kind: pIC50
Please keep in mind that pIC50 is minus log10 of the molar concentration; only the number is needed.

Noted for Cc1cccc(C(=O)N[C@H](C(N)=O)C(=O)c2ccc3c(=O)[nH][nH]c(=O)c3c2)c1 : its pIC50 reads 6.70

====

For reference, IC50 measured on Protein mono-ADP-ribosyltransferase PARP14 (Homo sapiens):

• NC(=O)c1ccc(OCC2CCCCC2)cc1OCc1ccccn1 = > 10 µM
• NC(=O)c1ccc(OCC2CCCCC2)cc1 = > 100 µM
• COc1ccccc1COc1ccc(C(N)=O)c(F)c1 = 6.8 µM

// recorded IC50 for NC(=O)c1ccc(OCc2cccc(Br)c2)cc1F : > 10 µM

NC(=O)c1ccc(OCC2CC2)cc1 has a reported IC50 of > 10 µM

The compound listed as O=c1[nH][nH]c(=O)c2cc(OCC3CC3)ccc12 shows IC50 equal to > 10 µM

For COc1cc(OCc2ccccc2F)ccc1C(N)=O the compound record lists IC50 as > 10 µM

Noted for O=c1[nH][nH]c(=O)c2cc(OCc3cccc(Br)c3)ccc12 : its IC50 reads > 100 µM

// IC50 lookup, compound = COc1cc(OCc2cccc3ccccc23)ccc1C(N)=O , result: > 100 µM

The compound NC(=O)c1ccc(OCC2CCCC2)cc1 showed IC50 equal to > 10 µM

====

system.name: UniProt Q460N3
assay.explanation: Inhibition of human N-terminal 6His-tagged PARP15 (460 to 656 residues) expressed in Escherichia coli Rosetta2 (DE3) cells using NAD+ as substrate incubated for 10 mins by fluorescence based analysis
// thresholds for IC50 classes: lower range: < 2 µM; middle range: ≥ 2 µM and < 4 µM; upper range: ≥ 4 µM

# count of solved cases: 3
• NC(=O)c1ccc(OCC2CCCCC2)cc1 = middle range
• O=c1[nH][nH]c(=O)c2cc(OCC3CCCCC3)ccc12 = lower range
• COc1cc(OCC2CCCCC2)ccc1C(N)=O = upper range

Class? Entry: NC(=O)c1ccc(OCC2CCCCC2)cc1F
upper range

Please let me know in which category the item NC(=O)c1ccc(OCc2cccc(Br)c2)cc1F belongs.
lower range

Band assignment needed for NC(=O)c1ccc(OCC2CCC2)cc1 please.
middle range

// return the class label for NC(=O)c1ccc(OCC2CCC2)cc1OCCN1CCNCC1
upper range

Sort NC(=O)c1ccc(OCC2CC2)cc1 into one of the categories.
upper range

Which class is correct for the following compound? COc1cc(OCc2cccc(Br)c2)ccc1C(N)=O
middle range

Given O=c1[nH][nH]c(=O)c2cc(OCC3CCCC3)ccc12 , name the class its IC50 places it in.
lower range

====

system.name: UniProt Q460N3
assay.explanation: Inhibition of human N-terminal 6His-tagged PARP15 (460 to 656 residues) expressed in Escherichia coli Rosetta2 (DE3) cells using NAD+ as substrate incubated for 10 mins by fluorescence based analysis
This listing pairs molecules with measured IC50.
Report the figure in µM without appending any unit label.

• NC(=O)c1ccc(OCC2CCCC2)cc1 = 3.8
• NC(=O)c1ccc(OCC2CCC2)cc1F = 6

Okay, now this molecule:
Please fill in: IC50 reported for NC(=O)c1ccc(OCc2cncs2)cc1 = 2.4
